- System: Plasmodium falciparum
- assay summary: GSK_TCMDC: Inhibition of Plasmodium falciparum 3D7 in whole red blood cells, using parasite LDH activity as an index of growth. Test compounds present at 2uM
- Assay type: functional
Entries and their Inhibition
Return type: number; implicit unit %.

Check out these entries, answers already filled in.
compound=CCc1cc(-c2onc(C(F)(F)F)c2-c2ccccc2)c(O)cc1OC assay_endpoint=Inhibition measured=98
compound=Cc1cccc2nc(-c3cccc(-c4cccc(NC(=O)c5ccc(C(N)=O)cc5)c4)c3)[nH]c12 assay_endpoint=Inhibition measured=100
compound=COc1ccc2c(=NN=Cc3ccncc3)cc(C)[nH]c2c1 assay_endpoint=Inhibition measured=99
compound="COc1ccc2nccc(NC(=O)C3(O)CCC(NCc4ncc5c(c4Cl)OCCO5)CC3)c2n1.Cl (centres undefined)" assay_endpoint=Inhibition measured=83
compound=O=C(c1cccc(Cl)c1)N1CCN(c2ccc([N+](=O)[O-])c(NC3CC3)c2)CC1 assay_endpoint=Inhibition measured=100
compound=Clc1cccc(CNc2nc(NCCc3c[nH]cn3)nc(NC3CCCCC3)n2)c1 assay_endpoint=Inhibition measured=98

I have this compound here, CC(C)c1ccc(CN2CCC(CNC(=O)c3cc(-c4cccc(Cl)c4)cs3)C2)cc1.O=C(O)C(F)(F)F (centres undefined) , and I need its recorded Inhibition. 99

Please give the result for CC(C)c1ccc(NC(=O)c2ccc(C(=O)NC3CCN(Cc4ccsc4)C3)cc2)cc1.O=C(O)C(F)(F)F (centres undefined) too. 82

Note, next up: "O=C(O)C(F)(F)F.O=S(=O)(NCCN1CCCC1)c1ccc(-c2ccc(CNC3Cc4ccccc4C3)cc2)cc1F" 100

Also "COc1cc(N)cc2sc(N)nc12" , if possible. 99

Same again, this time with "CN(C)CCCOc1cccc(NC(=O)Nc2ccc(Cl)c(Cl)c2)c1.O=C(O)C(F)(F)F" 90

# repeat for "Cc1cc2c(cc1C(F)(F)F)N(C(=O)Nc1ccc(C(=O)NCCN3CCCC3)cc1)CC2" 100

How about this compound: Cc1cc(=O)c(C2CCC(c3ccc(Cl)cc3)CC2)c(C)[nH]1 (centres undefined) 88

Same lookup for "Brc1ccc(Nc2nc(NCc3ccccc3)c3ccccc3n2)cc1" , please. 100

Also, "COc1ccc(Oc2ccccc2CNCC2CCN(CC3CCCCC3)CC2)cc1.O=C(O)C(F)(F)F" please. 85

Param item: "O=C(Nc1cccc(-c2ccc(-c3nc4ccccc4[nH]3)cc2)c1)Nc1ccc(F)c(F)c1F" 100

Now consider CC(CN(C)C)C(=O)Nc1cccc(-c2ccc(-c3nc4cc(F)ccc4[nH]3)s2)c1 (centres undefined) and answer again. 100

Another compound: "Fc1ccc2[nH]c(-c3ccc(-c4ccc(CNCCc5cccnc5)cc4)s3)nc2c1.O=C(O)C(F)(F)F" 100

Next compound up: CC(Cc1ccc(CN2CCN(Cc3ccccc3)CC2)cc1)NCC(O)c1cccc(C(F)(F)F)c1.Cl (centres undefined) 97
